Entry source: ChEMBL document CHEMBL4196220

- target-or-system: Synaptic vesicular amine transporter (Homo sapiens)
- Sequence (Q05940 whole entry): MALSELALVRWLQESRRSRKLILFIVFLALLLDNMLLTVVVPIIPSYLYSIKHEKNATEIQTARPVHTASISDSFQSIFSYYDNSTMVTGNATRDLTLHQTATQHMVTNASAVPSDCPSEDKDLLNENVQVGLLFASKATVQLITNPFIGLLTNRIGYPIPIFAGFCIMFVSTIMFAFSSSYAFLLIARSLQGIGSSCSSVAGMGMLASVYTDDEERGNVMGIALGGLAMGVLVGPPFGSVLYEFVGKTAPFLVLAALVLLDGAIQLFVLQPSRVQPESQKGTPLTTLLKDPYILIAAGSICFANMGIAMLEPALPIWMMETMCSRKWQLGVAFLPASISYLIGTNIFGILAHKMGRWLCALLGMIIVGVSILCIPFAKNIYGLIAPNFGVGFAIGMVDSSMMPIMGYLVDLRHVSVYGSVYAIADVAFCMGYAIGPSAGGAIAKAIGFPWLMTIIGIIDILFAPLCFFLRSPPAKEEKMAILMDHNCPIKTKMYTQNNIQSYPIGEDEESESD
- procedure-details: Displacement of [3H]DHTB from human VMAT2 expressed in HEK293 cell membranes incubated for 90 mins by microbeta scintillation counting method
Ki: recorded values

Consider the worked cases shown below.
{"molecule": "CN1[C@@H](CC(=O)c2ccccc2)CCC[C@H]1C[C@H](O)c1ccccc1", "reported": "> 10 µM"}
{"molecule": "CCOC(=O)[C@@H]1CN(CCn2c(=O)[nH]c3ccccc3c2=O)CC[C@@H]1c1ccc(N(C)C)cc1 (racemic)", "reported": "> 10 µM"}
{"molecule": "CNC(C)Cc1ccccc1 (stereo unspecified)", "reported": "346 µM"}
{"molecule": "CCOC(=O)[C@@H]1CN(CCn2c(=O)[nH]c3ccccc3c2=O)CC[C@@H]1c1ccc(C(F)(F)F)cc1 (racemic)", "reported": "> 10 µM"}
{"molecule": "CCOC(=O)[C@@H]1CN(CCn2c(=O)[nH]c3ccccc3c2=O)CC[C@@H]1c1ccc(C)cc1 (racemic)", "reported": "> 9.1 µM"}

Supply recorded Ki for CCOC(=O)[C@@H]1CN(CCn2c(=O)[nH]c3ccccc3c2=O)CC[C@@H]1c1ccc(-c2ccccc2)cc1 (racemic) here.
> 10 µM

Tell me measured Ki for CCOC(=O)[C@@H]1CN(CCn2c(=O)[nH]c3ccccc3c2=O)CC[C@@H]1c1cccs1 (racemic) please.
6.16 µM

Identify measured Ki associated with CCOC(=O)[C@@H]1CN(CCn2c(=O)[nH]c3ccccc3c2=O)CC[C@@H]1c1cccc(C(F)(F)F)c1 (racemic)
> 10 µM

Find the measured Ki of CCOC(=O)[C@@H]1CN(CCn2c(=O)[nH]c3ccccc3c2=O)CC[C@@H]1c1ccccc1 (racemic) and report it.
> 7.7 µM

Determine from records and report Ki for O=C(c1ccc(F)cc1)C1CCN(CCn2c(=O)[nH]c3ccccc3c2=O)CC1
0.077 µM

Please report Ki for the following molecule: CCC1(O)CC2c3cc(OC)c(OC)cc3CCN2CC1CC(C)C (stereo unspecified)
0.064 µM
